- tested_system: PAI-1 (Homo sapiens, UniProt P05121)
- Sequence (P05121 24-402): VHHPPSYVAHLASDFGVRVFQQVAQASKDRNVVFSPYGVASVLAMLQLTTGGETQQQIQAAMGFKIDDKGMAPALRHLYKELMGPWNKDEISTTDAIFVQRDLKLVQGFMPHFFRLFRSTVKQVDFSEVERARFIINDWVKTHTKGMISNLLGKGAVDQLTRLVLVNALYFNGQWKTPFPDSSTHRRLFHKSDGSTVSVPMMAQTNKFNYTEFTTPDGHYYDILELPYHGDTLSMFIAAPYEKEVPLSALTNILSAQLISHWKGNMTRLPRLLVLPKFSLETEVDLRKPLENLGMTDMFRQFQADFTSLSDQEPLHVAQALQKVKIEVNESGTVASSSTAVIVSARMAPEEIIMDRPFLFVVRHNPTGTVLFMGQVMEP
- assay_explanation: biochemical
- Type: biochemical
- condition_description: PAI chromogenic substrate assay
Structures can show the parent of a compound that is named as a salt.
readout_kind: log10 of IC50 (log10 of the value in µM)
Short version: log10 scale, IC50, µM.

Here is how some compounds turned out for log10 of IC50.
compound	reported_result
CN(C)CCSc1ccc(/C=c2\[nH]c(=O)/c(=C/c3ccccc3)[nH]c2=O)cc1 [Compound 5128.HCl]	1.00
CN(C)CCSc1ccc(/C=c2\[nH]c(=O)/c(=C/c3ccsc3)[nH]c2=O)cc1 [Compound 5133.HCl]	0.48
CN(C)CCSc1ccc(/C=c2\[nH]c(=O)/c(=C/c3ccc4c(c3)Cc3ccccc3-4)[nH]c2=O)s1	1.30
CN(C)CCSc1ccc(/C=c2\[nH]c(=O)/c(=C/c3ccc(C(F)(F)F)cc3)[nH]c2=O)cc1 [Compound 5294.HCl]	1.00
CN(C)CCSc1ccc(/C=c2\[nH]c(=O)/c(=C/C3CCCCC3)[nH]c2=O)s1 [Compound 5454.HCl]	0.72
CN(C)CCSc1ccc(/C=c2\[nH]c(=O)/c(=C/c3ccc(Br)cc3)[nH]c2=O)s1 [Compound 5489.HCl]	1.10
CN(C)CCSc1ccc(/C=c2\[nH]c(=O)/c(=C/c3cccc(Cl)c3)[nH]c2=O)s1	1.30
Cc1cccc(/C=c2\[nH]c(=O)/c(=C/c3ccc(SCCN(C)C)cc3)[nH]c2=O)c1 [Compound 5439.HCl]	1.23
CN(C)CCSc1ccc(/C=c2\[nH]c(=O)/c(=C/c3cccc(C(F)(F)F)c3)[nH]c2=O)cc1 [Compound 5423.HCl]	1.30
CN(C)CCSc1ccc(/C=c2\[nH]c(=O)/c(=C/C3CCCCC3)[nH]c2=O)s1 [Compound 5454]	0.74

Hi! Can you tell me log10 of IC50 for each of these compounds?
1. COc1cc(/C=c2\[nH]c(=O)/c(=C/c3ccc(SCCN(C)C)s3)[nH]c2=O)ccc1OCc1ccc([N+](=O)[O-])cc1 [Compound 5488.HCl]
2. CN(C)CCSc1ccc(/C=c2\[nH]c(=O)/c(=C/c3cccc(Br)c3)[nH]c2=O)cc1 [Compound 5425]
3. CN(C)CCSc1ccc(/C=c2\[nH]c(=O)/c(=C/c3ccc(Cl)c(Cl)c3)[nH]c2=O)cc1 [Compound 5465]

Solution:
1: 0.88; 2: 0.57; 3: 0.56

* * *

- tested_system: PAI-1 (Homo sapiens)
- assay_explanation: biochemical
- Type: biochemical
- condition_description: 20 μm
Counter-ions that a name gives are not always drawn.
readout_kind: % Inhibition (%)
Give bare numbers, in %.

compound	tested_system	value_unit	reported_result
CN(C)CCSc1ccc(/C=c2\[nH]c(=O)/c(=C/c3ccc(Cl)cc3)[nH]c2=O)cc1 [Compound 5437]	PAI-1 (Homo sapiens)	%	41
CC(C)N(CCSc1ccc(/C=c2\[nH]c(=O)/c(=C/c3ccccc3)[nH]c2=O)s1)C(C)C [Compound 5399]	PAI-1 (Homo sapiens)	%	43
CN(C)CCSc1ccc(/C=c2\[nH]c(=O)/c(=C/c3cccnc3)[nH]c2=O)s1 [Compound 5470]	PAI-1 (Homo sapiens)	%	0
COc1cc(/C=c2\[nH]c(=O)/c(=C/c3ccc(SCCN(C)C)s3)[nH]c2=O)ccc1OCc1ccc([N+](=O)[O-])cc1 [Compound 5488]	PAI-1 (Homo sapiens)	%	64
CN(C)CCSc1ccc(/C=c2\[nH]c(=O)/c(=C/c3ccccn3)[nH]c2=O)s1 [Compound 5471.HCl]	PAI-1 (Homo sapiens)	%	2
CN(C)CCSc1ccc(/C=c2\[nH]c(=O)/c(=C/c3ccc(Br)cc3)[nH]c2=O)s1 [Compound 5489]	PAI-1 (Homo sapiens)	%	56

Sure, the documented % Inhibition for CN(C)CCSc1ccc(/C=c2\[nH]c(=O)/c(=C/c3ccccn3)[nH]c2=O)s1 [Compound 5471] is 1

* * *

- tested_system: UniProt:P05121
- assay_explanation: biochemical
- Format: biochemical
- condition_description: PAI chromogenic substrate assay
pIC50: −log10 of the molar value. Where a name gives a salt, the structure may show the parent alone.
Label scheme for pIC50: lower than 5 is rule not met, 5 and above is rule met.

Worked cases, answers included:
compound	label_class
Cc1ccc(/C=c2\[nH]c(=O)/c(=C/c3ccc(SCCN(C)C)cc3)[nH]c2=O)cc1 [Compound 5463.HCl]	rule met
CN(C)CCSc1sc(/C=c2\[nH]c(=O)/c(=C/c3ccccc3)[nH]c2=O)cc1[N+](=O)[O-]	rule not met
COc1ccc(/C=c2\[nH]c(=O)/c(=C/c3ccc(SCCN(C)C)cc3)[nH]c2=O)cc1 [Compound 5479.HCl]	rule met
CN(C)CCSc1ccc(/C=c2\[nH]c(=O)/c(=C/c3ccc(Br)cc3)[nH]c2=O)cc1	rule met
CN(C)CCSc1ccc(/C=c2\[nH]c(=O)/c(=C/c3ccc(Cl)cc3)[nH]c2=O)cc1 [Compound 5437.HCl]	rule not met
CN(C)CCSc1ccc(/C=c2\[nH]c(=O)/c(=C/c3ccc(Cl)cc3)[nH]c2=O)cc1 [Compound 5437]	rule not met
CN(C)CCSc1ccc(/C=c2\[nH]c(=O)/c(=C/c3ccc(OCc4ccccc4)cc3)[nH]c2=O)s1	rule not met
COC(=O)c1ccc(/C=c2\[nH]c(=O)/c(=C/c3ccc(SCCN(C)C)s3)[nH]c2=O)cc1 [Compound 5477.HCl]	rule not met

Field: next compound
Exercise: Item `CN(C)CCSc1ccc(/C=c2\[nH]c(=O)/c(=C/c3ccc(C(F)(F)F)cc3)[nH]c2=O)s1` with pIC50 of 5 or above?
Solution: rule not met

* * *

I'd appreciate it if you could supply % Inhibition values for the items below.
- tested_system: PAI-1 (Homo sapiens, UniProt P05121)
- assay_explanation: biochemical
- Assay type: biochemical
- condition_description: 20 μm
Give bare numbers, in %.

Here is how some molecules turned out for % Inhibition.
molecule	tested_system	readout_kind	reported_result
CN(C)CCSc1ccc(/C=c2\[nH]c(=O)/c(=C/c3cccc(OCc4ccccc4)c3)[nH]c2=O)cc1 [Compound 5486]	PAI-1 (Homo sapiens, UniProt P05121)	% Inhibition	55
CN(C)CCSc1ccc(/C=c2\[nH]c(=O)/c(=C/c3ccc(Br)cc3)[nH]c2=O)cc1 [Compound 5480]	PAI-1 (Homo sapiens, UniProt P05121)	% Inhibition	74
CN(C)CCSc1ccc(/C=c2\[nH]c(=O)/c(=C/c3ccc(Cl)c(Cl)c3)[nH]c2=O)cc1 [Compound 5465]	PAI-1 (Homo sapiens, UniProt P05121)	% Inhibition	73

Pending molecule:
Sure, the documented % Inhibition for CN(C)CCSc1ccc(/C=c2\[nH]c(=O)/c(=C/C3CCCCC3)[nH]c2=O)s1 [Compound 5454] is 75

* * *

I'd appreciate it if you could supply % Inhibition values for the items below.
- tested_system: PAI-1 (Homo sapiens)
- assay_explanation: biochemical
- Assay type: biochemical
- condition_description: 20 μm
Counter-ions that a name gives are not always drawn.
Numbers only, in %.

Here is how some compounds turned out for % Inhibition.
compound	reported_result
COc1ccc2ccccc2c1/C=c1\[nH]c(=O)/c(=C/c2ccc(SCCN(C)C)s2)[nH]c1=O [Compound 5499]	61
CN(C)CCSc1ccc(/C=c2\[nH]c(=O)/c(=C/c3ccc4c(c3)Cc3ccccc3-4)[nH]c2=O)s1	65
CN(C)CCSc1ccc(/C=c2\[nH]c(=O)/c(=C/c3ccsc3)[nH]c2=O)s1	77
Cc1cccc(/C=c2\[nH]c(=O)/c(=C/c3ccc(SCCN(C)C)cc3)[nH]c2=O)c1 [Compound 5439.HCl]	35
Cc1ccc(/C=c2\[nH]c(=O)/c(=C/c3ccc(SCCN(C)C)s3)[nH]c2=O)cc1 [Compound 5460]	83

Hi! Can you tell me % Inhibition for each of these compounds?
1. CN(C)CCSc1ccc(/C=c2\[nH]c(=O)/c(=C/c3c4ccccc4cc4ccccc34)[nH]c2=O)s1 [Compound 5498]
2. CN(C)CCSc1ccc(/C=c2\[nH]c(=O)/c(=C/c3ccc4c(c3)OCO4)[nH]c2=O)cc1 [Compound 5491]
3. CN(C)CCSc1ccc(/C=c2\[nH]c(=O)/c(=C/c3ccc([N+](=O)[O-])cc3)[nH]c2=O)cc1 [Compound 5461]
4. CN(C)CCSc1ccc(/C=c2\[nH]c(=O)/c(=C/c3cccc(C#N)c3)[nH]c2=O)cc1 [Compound 5476.HCl]
5. CN(C)CCSc1ccc(/C=c2\[nH]c(=O)/c(=C/c3cn(C)c4ccccc34)[nH]c2=O)s1 [Compound 5473]
6. CN(C)CCSc1ccc(/C=c2\[nH]c(=O)/c(=C/c3ccc(OCc4ccccc4)cc3)[nH]c2=O)cc1 [Compound 5481.HCl]
7. CSc1ccc(/C=c2\[nH]c(=O)/c(=C/c3ccc(SCCN(C)C)cc3)[nH]c2=O)cc1 [Compound 5426]

Solution:
[52, 65, 44, 34, 61, 55, 52]

Hi! Can you tell me % Inhibition for each of these compounds?
1. CN(C)CCSc1ccc(/C=c2\[nH]c(=O)/c(=C/c3ccnc4ccccc34)[nH]c2=O)s1
2. CN(C)CCSc1ccc(/C=c2\[nH]c(=O)/c(=C/c3ccccc3)[nH]c2=O)s1 [Compound 5131.HCl]
3. CN(C)CCSc1ccc(/C=c2\[nH]c(=O)/c(=C/c3ccc4c(c3)OCO4)[nH]c2=O)cc1 [Compound 5491.HCl]
4. CN(C)CCSc1ccc(/C=c2\[nH]c(=O)/c(=C/c3ccc([N+](=O)[O-])cc3)[nH]c2=O)cc1 [Compound 5461.HCl]

Solution:
[83, 65, 47, 56]
